Please provide measured melting point for the entries that follow.

Here are 2 compounds together with their reported answers.
| Compound | Observed Value |
| --- | --- |
| O=C1OCN(C(=O)OCc2ccccc2)[C@H]1CCBr | 85 °C |
| COc1cc(C=C2SC(=O)NC2=O)ccc1OCCN1c2ccccc2Sc2ccccc21 | 210 to 212 °C |

// each compound listed below needs its melting point
1. Clc1ccc(-c2nnnn2Cc2cccnc2)cc1Cl
2. Cc1ccc(N2CCN(S(=O)(=O)c3cccc(/C=C/C(=O)NO)c3)CC2C)cc1 (centres undefined)

1. 166 to 168 °C
2. 186 °C

###

Kindly supply the reported melting point values for the records listed here.

Quick request: melting point for each listed item, please.
1. O=S(c1ccc(-n2cnnn2)cc1)C(F)F (centres undefined)
2. COc1c(-c2cc3c(s2)CCC(CO)=C3)ccc2c(=O)c(C(=O)O)cn(C3CC3)c12
3. Cc1c(C)n(CC=CCl)c2c(OCc3ccc(F)cc3)nncc12
4. Cc1ncoc1C(=O)c1ccoc1

109 to 112 °C
205 to 206 °C
110 to 115 °C
82 to 83.5 °C

###

Observation Type: melting point

These solved cases illustrate the format of a correct answer.
| Molecule | melting point |
| --- | --- |
| N#CCCCCc1cccc2cncn12 | 72 to 75 °C |
| CC(C)N1OCCC(C(O)c2cc(C(C)(C)C)c(O)c(C(C)(C)C)c2)C1=O (stereo not drawn) | 150 to 153 °C |

Specify measured melting point for O=C(O)COc1ccc(C(=O)C=Cc2ccccc2F)c(Cl)c1Cl .
191 to 194 °C

###

Consider the following compounds; for each one, report its melting point.

Known melting point results, listed for orientation:
| Compound | melting point |
| --- | --- |
| CC(=O)SCC(Cc1ccccc1)C(=O)NN1CCCCCC1 (stereo unspecified) | 126 °C |
| O=C(CCC(Cl)(Cl)Cl)Nc1cccc(-c2ccnc3c(C(=O)c4cccs4)cnn23)c1 | 189 to 191 °C |
| CCOC(=O)C=C[C@H](Cc1ccc(-c2ccccc2)cc1)NC(=O)OC(C)(C)C | 91 to 94 °C |
| O=c1ccc(C(c2ccccc2)c2ccccc2)n[nH]1 | 161 to 162 °C |
| Fc1ccc(NN=Cc2cccs2)cc1 | 138 to 140 °C |
| COc1ccccc1Oc1c(NS(=O)(=O)c2ccc(C(C)(C)C)cc2)nc(NCCN(C)C)nc1OCCO | 102 to 106 °C |

Report melting point for each item below.
1. CCOC(=O)CCCC1CCN(CCOC(c2ccccc2)c2ccc(Cl)cc2)CC1 (stereo unspecified)
2. CCOC(=O)C1OC1C(=O)NCc1ccccc1 (stereo unspecified)
3. Clc1ccc(-c2nn(-c3ccc(Br)cc3)cc2CCc2nnn[nH]2)cc1

1: 117 to 119 °C; 2: 90 to 91 °C; 3: 164 to 166 °C

Need melting point for each of these compounds.
1. CC(C)CS(=O)c1ccc(N)c([N+](=O)[O-])c1 (stereo unspecified)
2. Cc1cc(F)ccc1-c1nc(N[C@H]2CC[C@H](O)CC2)nc2c1ccc(=O)n2-c1c(F)cccc1F

111 to 118 °C
158 to 160 °C

###

Observation Type: melting point

Below, 5 molecules whose answers are already recorded.
| Molecule | Observation Type | Observed Value |
| --- | --- | --- |
| COc1ccc(/C(=C/C(=O)O)c2cc(F)cc(F)c2)cc1 | melting point | 170 to 172 °C |
| CSc1ccc(C(=CN(C)C)C(C)=O)cc1 | melting point | 89 to 91 °C |
| CCCCNC(=O)c1cc(C(C)(C)C)c(O)c(C(C)(C)C)c1 | melting point | 181 to 183 °C |
| COC1OC(CO)C(OCc2ccccc2)C(O)C1OCc1ccccc1 (stereo not given) | melting point | 104 to 105 °C |
| CN1C(=O)CC[C@]2(C)c3ccc(-c4ccc5ccccc5c4)cc3CC[C@@H]12 | melting point | 221 to 223 °C |

Fill in melting point for each of the 3 molecules listed.
1. O=C(O)c1cc(C(F)(F)F)cc([N+](=O)[O-])c1Cl
2. COC(=O)CCCC(=O)c1ccc(O)c(O)c1
3. COc1ccc(C(=CC=O)c2ccc(OC)c(OC)c2)cc1OC

173 °C
104 to 106 °C
129 to 130 °C

###

Record form. Attribute: melting point. Fill in for each entry.

| Compound | Observed Value |
| --- | --- |
| CCc1n[nH]c(-c2ccccc2)c1NC(=O)c1ccccc1 | 215 to 216 °C |
| Cc1c(C(=O)Nc2ccc(N3CCOCC3)c(C#N)c2)cnn1-c1ccc(F)cc1 | 201 to 202 °C |
| CC(=O)NC(CC(=O)c1ccccc1)OC(C)=O (configuration not stated) | 82 to 83 °C |
| O=C(O)COc1ccc(SCc2ccc(OC3CCc4cc(Cl)ccc43)cc2)c2c1CCC2 (configuration not stated) | 169 to 170 °C |
| Nc1nc(NCc2ccccc2)nc(-c2cc(Cl)ccc2Cl)n1 | 200 to 201 °C |

Give melting point for each of the items listed below.
1. Cc1cc(C)c(C=NCc2ccc(Cl)nc2)c(C)c1
2. CC(C)N(CCOc1ccccc1NC(=O)c1cccc2[nH]ccc12)C(C)C
3. COc1ccc(C=CC(=O)c2c(O)cc(OC)cc2OC)cc1
4. CC(Oc1ccc(Oc2ccc3cc(Cl)ccc3n2)cc1)C(=O)Nc1ccc(C(F)(F)F)cc1 (configuration not stated)
5. BrCCCCCCOc1ccc(C2=NCCO2)cc1
6. Cn1ncc2[nH]c3ccc(Cc4cccc(C(N)=O)c4)cc3c(=O)c21

["47 to 48 °C", "145 °C", "111 °C", "142 to 146 °C", "79 to 81 °C", "> 300 °C"]

Check the records and state melting point for CC(C)(C)C(=O)Nc1ccncc1-c1noc2ccccc12
137 to 138 °C

###

Please respond with reported melting point for every item in the list.

In the examples that follow, each entry is paired with its recorded melting point.
| Compound | melting point |
| --- | --- |
| COCc1c(N2CCN(C)CC2)c(F)cc2c(=O)c(C(=O)OC)cn(C3CC3)c12 | 200 to 204 °C |
| CC(=O)Nc1ccc(C(=O)N2CCOCC2)cc1[N+](=O)[O-] | 128 to 132 °C |
| CC1(C)CC(SCc2c(C(F)(F)F)nn(C(C)(C)C)c2Cl)=NO1 | 79 to 81 °C |
| NCc1ccccc1CC(=O)O | 151 to 155 °C |
| CCN(CC)c1ccc(C2(CNC(=O)Nc3c(C(C)C)cccc3C(C)C)CCCC2)cc1 | 138 to 140 °C |

Please give melting point, item by item, for the list that follows.
1. O=C1CC2(CCCC2)CC(=O)N1CCCCN1CCN(C(c2ccc(F)cc2)c2ccc(F)cc2)CC1
2. COC(=O)C(NS(=O)(=O)c1ccc(-c2ccc(NC(=O)c3oc4cccc(C)c4c3C)cc2)cc1)C(C)C (centres undefined)
3. CC(=O)N1CCc2c(sc(C)c2CCN2CCC(c3noc4ccc(F)cc34)CC2)C1
4. NC(=O)N1C(=O)C(=C(OC(=O)c2cccc(C(=O)O)c2)c2cccs2)c2cc(F)c(Cl)cc21

["165 to 169 °C", "199 to 200 °C", "167 to 172 °C", "244 to 248 °C"]

###

Assignment: determine reported melting point for the given compounds.

Recorded results for 2 compounds are shown here.
| Compound | Observed Value |
| --- | --- |
| Cc1ccnc2c1C(=O)CC(c1nccs1)C2 (stereo not drawn) | 88 to 89 °C |
| CC(=O)OC1CSC(Oc2cccc(-c3ncccc3Cl)c2)C(OC(C)=O)C1OC(C)=O (stereo not drawn) | 148 °C |

Working through the 5 compounds below one at a time, give melting point for each.
1. NCCCOc1ccc(OCc2ccccc2)cc1
2. COC(=O)c1ccc(-c2nc(-c3ccccc3)n(C)n2)cc1
3. Oc1ccc(-c2ncc3ncc(-c4ccc(C(F)(F)F)cc4)cc3n2)cc1
4. N#Cc1cccc(C=CC(=O)c2ccc(F)cc2)c1
5. NC1C2CN(C(=O)Nc3ccc(F)cc3)CC12 (stereo not drawn)

["115 °C", "167 to 168 °C", "203 to 204 °C", "170 to 172 °C", "150 °C"]

Hi! Can you tell me melting point for each of these compounds?
1. CSc1ccc(-c2cccc(-c3nc(C(C)C)[nH]c3-c3cccc(C)n3)c2)cc1
2. Cc1c(S(C)(=O)=O)ccc(C(=O)C2SCCCC2=O)c1Cl (stereo not drawn)
3. c1cncc(-c2ccnc3nc(N4CCNCC4)nn23)c1
4. CC1(C)COC(=O)C(C(=O)Nc2cccc(C(F)(F)F)c2)C1=O (stereo not drawn)
5. COc1cc(C)nc(Nc2ccc(Cl)cc2)n1
6. CCOC(=O)c1cn(C2CSC2)c2nc(Cl)c(F)cc2c1=O
7. CCCc1cc2ccc(CC(=O)OC)cc2n1C(C)=O

1: 80 to 82 °C; 2: 142 to 144 °C; 3: 156 to 158 °C; 4: > 200 °C; 5: 101 to 103 °C; 6: 157 to 161 °C; 7: 85 to 87 °C
